The molecules below have reported MIC for Trichomonas vaginalis.

Sample records with MIC:
C=C1CCC(Cl)C(C)(C)C1CC12OC(C)(C)C(Cl)CC1(Cl)C(=O)c1c(cc(O)c(C)c1O)C2=O (stereo not shown) [A80915A]
12.5 µg/mL
C=C1CCC(Cl)C(C)(C)C1CC12OC(C)(C)C(Cl)CC1(Cl)C(=O)c1c(O)c(C)c([O-])c([N+]#N)c1C2=O (stereo not shown) [A80915B]
6.25 µg/mL
Cc1c([O-])c([N+]#N)c2c(c1O)C(=O)[C@@]1(Cl)C[C@@H](Cl)C(C)(C)O[C@@]1(C[C@H]1C(C)(C)[C@@H](Cl)CC[C@]1(C)O)C2=O [A80915D]
25 µg/mL

MIC reported for this molecule Cc1c(O)cc2c(c1O)C(=O)[C@@]1(Cl)C[C@@H](Cl)C(C)(C)O[C@@]1(C[C@H]1C(C)(C)[C@@H](Cl)CC[C@]1(C)O)C2=O [A80915C] : > 100 µg/mL

---

System: Streptococcus pyogenes C203
Type: cell-based
Details: Streptococcus pyogenes C203; agar-dilution; read-out: MIC
MEASUREMENT KIND: MIC (µg/mL)
Supply the numeric figure in µg/mL, leaving out any unit text.

C=C1CCC(Cl)C(C)(C)C1CC12OC(C)(C)C(Cl)C=C1C(=O)c1c(cc(O)c(C)c1O)C2=O (stereo not shown) [Compound 5]
4
C=C1CCC(Cl)C(C)(C)C1CC12OC(C)(C)C(Cl)CC1(Cl)C(=O)c1c(cc(O)c(C)c1O)C2=O (stereo not shown) [A80915A]
32
C=C1CCC(Cl)C(C)(C)C1CC12OC(C)(C)C(Cl)CC1(Cl)C(=O)c1c(O)c(C)c([O-])c([N+]#N)c1C2=O (stereo not shown) [A80915B]
8

Next item in the queue.
MIC reported for this compound Cc1c([O-])c([N+]#N)c2c(c1O)C(=O)[C@@]1(Cl)C[C@@H](Cl)C(C)(C)O[C@@]1(C[C@H]1C(C)(C)[C@@H](Cl)CC[C@]1(C)O)C2=O [A80915D] : 2

---

# Lookup of reported MIC keyed by entry
Test system: Bordetella bronchiseptica

Sample records with MIC:
Cc1c(O)cc2c(c1O)C(=O)[C@@]1(Cl)C[C@@H](Cl)C(C)(C)O[C@@]1(C[C@H]1C(C)(C)[C@@H](Cl)CC[C@]1(C)O)C2=O [A80915C]
> 50 µg/mL
C=C1CCC(Cl)C(C)(C)C1CC12OC(C)(C)C(Cl)CC1(Cl)C(=O)c1c(O)c(C)c([O-])c([N+]#N)c1C2=O (stereo not shown) [A80915B]
> 50 µg/mL
Cc1c([O-])c([N+]#N)c2c(c1O)C(=O)[C@@]1(Cl)C[C@@H](Cl)C(C)(C)O[C@@]1(C[C@H]1C(C)(C)[C@@H](Cl)CC[C@]1(C)O)C2=O [A80915D]
> 50 µg/mL

The reported Bordetella bronchiseptica MIC of C=C1CCC(Cl)C(C)(C)C1CC12OC(C)(C)C(Cl)CC1(Cl)C(=O)c1c(cc(O)c(C)c1O)C2=O (stereo not shown) [A80915A] is > 50 µg/mL

---

System: Staphylococcus aureus V41
Assay type: cell-based
Conditions: Staphylococcus aureus V41; agar-dilution; read-out: MIC
# Lookup of reported MIC keyed by entry

Cc1c([O-])c([N+]#N)c2c(c1O)C(=O)[C@@]1(Cl)C[C@@H](Cl)C(C)(C)O[C@@]1(C[C@H]1C(C)(C)[C@@H](Cl)CC[C@]1(C)O)C2=O [A80915D]
2 µg/mL

The reported Staphylococcus aureus V41 MIC of C=C1CCC(Cl)C(C)(C)C1CC12OC(C)(C)C(Cl)CC1(Cl)C(=O)c1c(cc(O)c(C)c1O)C2=O (stereo not shown) [A80915A] is 2 µg/mL

The reported Staphylococcus aureus V41 MIC of C=C1CCC(Cl)C(C)(C)C1CC12OC(C)(C)C(Cl)CC1(Cl)C(=O)c1c(O)c(C)c([O-])c([N+]#N)c1C2=O (stereo not shown) [A80915B] is 2 µg/mL

The reported Staphylococcus aureus V41 MIC of C=C1CCC(Cl)C(C)(C)C1CC12OC(C)(C)C(Cl)C=C1C(=O)c1c(cc(O)c(C)c1O)C2=O (stereo not shown) is 4 µg/mL
